System: HL-60
assay_method_text: Toxicity with/without β-glucuronidase, HL-60
Assay type: cell-based
condition_parameters: Homo sapiens, HL-60, read-out: IC50 Gluc-PHB-BL 37a
readout_kind: IC50 (µM)
Output spec: scalar in µM, unitless text.

Could you share which IC50 value was measured for CC1(C)CCC2=C(O1)c1ccccc1C(O)(Cc1ccc(O[C@@H]3O[C@H](C(=O)O)[C@@H](O)[C@H](O)[C@H]3O)cc1)C2=O (stereo partly shown) [Compound 37a] ?
15.2

* * *

assay_method_text: pH-rate aqueous kinetic analysis of fragmentation (para-aminobenzyl ketols)
Type: physicochemical
condition_parameters: citrate-phosphate buffer, pH 7, pH 7; initially reported value; read-out: release t1/2 (converted)
readout_kind: half-life at 0.155 mM (days)
Output spec: scalar in days, unitless text.

Could you share which half-life at 0.155 mM value was measured for CC1(C)CCC2=C(O1)c1ccccc1C(O)(Cc1ccc(N)cc1)C2=O (stereo not shown) ?
32.9

* * *

Tested on: HL-60 (leukaemia cell line)
assay_method_text: Viability assay (CellTiter-Blue), HL-60
Assay type: cell-based
condition_parameters: Homo sapiens
readout_kind: IC50
Hi, when you answer, please include the unit after the number. Thanks!

Under HL-60 (leukaemia cell line): IC50 value of CC1(C)CCC2=C(O1)c1ccccc1C(=O)C2=O [Compound 1, β-lapachone, reference compound] ?
1400 nM

* * *

Test system: SkBr-3
assay_method_text: Toxicity with/without β-glucuronidase, SkBr-3
Assay type: cell-based
condition_parameters: Homo sapiens, SK-BR-3; SkBr-3; read-out: IC50 β-lapachone, 1
readout_kind: pIC50
Remember, pIC50 is on a log scale: it is -log10 of the molar concentration.

Could you share which pIC50 value was measured for CC1(C)CCC2=C(O1)c1ccccc1C(=O)C2=O [Compound 1, β-lapachone, reference compound] ?
5.56

* * *

Test system: Aspc-1 pancreatic cancer cell line
assay_method_text: CellTiter Glo viability assay, Aspc-1
Format: cell-based
condition_parameters: Homo sapiens, ASPC1, 48 h
Method: For CellTiter Glo viability assays, 10,000 cells per well were plated on Day 1 and were allowed to adhere to the plate surface for 24 hours. Optimized concentration ranges of prodrugs were determined and made via serial dilution. […] Cells were incubated with compound for 48 hours and viability was assessed on Day 4 using the CellTiter Glo Viability assay which measures metabolically active cells by quantifying the amount of ATP present. […]
Listed here: items and their measured IC50.
Output spec: scalar in µM, unitless text.

Before answering, review these 2 worked examples.
Could you share which IC50 value was measured for CC1(C)CCC2=C(O1)c1ccccc1C(O)(Cc1cc(F)c(O[C@@H]3O[C@H](C(=O)O)[C@@H](O)[C@H](O)[C@H]3O)c(F)c1)C2=O (stereo partly drawn) [Compound 37b] ?
24.4

Could you share which IC50 value was measured for CC1(C)CCC2=C(O1)c1ccccc1C(O)(Cc1ccc(O[C@@H]3O[C@H](C(=O)O)[C@@H](O)[C@H](O)[C@H]3O)cc1)C2=O (stereo partly drawn) [Compound 37a] ?
17.4

Below: the item to evaluate.
Could you share which IC50 value was measured for COc1cc(O[C@@H]2O[C@H](C(=O)O)[C@@H](O)[C@H](O)[C@H]2O)ccc1CC1(O)C(=O)C2=C(OC(C)(C)CC2)c2ccccc21 (single isomer, unassigned) [Compound 37d] ?
2.99

* * *

Test system: MOLM-13
assay_method_text: Toxicity with/without β-glucuronidase, MOLM-13
Assay type: cell-based
condition_parameters: Homo sapiens, MOLM-13, read-out: IC50 Gluc-PHB-BL 37a
readout_kind: pIC50
Remember, pIC50 is on a log scale: it is -log10 of the molar concentration.

Could you share which pIC50 value was measured for CC1(C)CCC2=C(O1)c1ccccc1C(O)(Cc1ccc(O[C@@H]3O[C@H](C(=O)O)[C@@H](O)[C@H](O)[C@H]3O)cc1)C2=O (stereo partly shown) [Compound 37a] ?
4.10
